B1: D182F, Q93D82 (parent)
chain: MSTAIVTNVKHFGGMGSALRLSEAGHTVACHDESFKQKDELEAFAETYPQLKPMSEQEPAELIEAVTSAYGQVDVLVSNDIFAPEFQPIDKYAVEDYRGAVEALQIRPFALVNAVASQMKKRKSGHIIFITSATPFGPWKELSTYTSARAGACTLANALSKELGEYNIPVFAIGPNYLHSEDSPYFYPTEPWKTNPEHVAHVKKVTALQRLGTQKELGELVAFLASGSCDYLTGQVFWLAGGFPMIERWPGMPE

variants of: B1; settings: Rhizobium radiobacter; pH 7.7; Thermal; CD; Phosphate 5mM; structure 1PWX; whole UniProt chain shown
recorded-endpoint: change of melting temperature, mutant - wild type (higher = more stable) (°C)
Lab book: enter the figure in °C, no units written.

variant-identifier	value-observed
D182F	-2
A69M	-2.5
N195H	-0.5
T154I	-3
N157F	-1

## Input Look up and state reported change of melting temperature, mutant - wild type (higher = more stable) for H198M
## Output -10

## Input Given C30V , respond with its change of melting temperature, mutant - wild type (higher = more stable).
## Output -1

## Input Please give the documented change of melting temperature, mutant - wild type (higher = more stable) of E190L
## Output 0.5

## Input Consider the variant T134V and give its recorded change of melting temperature, mutant - wild type (higher = more stable).
## Output 3

## Input Annotate the variant H126Y with its measured change of melting temperature, mutant - wild type (higher = more stable).
## Output -1.5

## Input Report measured change of melting temperature, mutant - wild type (higher = more stable); entry is T213N
## Output -3.5
